Recorded pIC50, one value per entry.
System: HT 29
Assay: Growth inhibition test (MTT), cytotoxic action on tumour cell lines
Assay type: cell-based
Settings: Homo sapiens, HT-29, 144 h, read-out: IC50 values of the cytotoxic action on tumour cell lines, HT 29
pIC50: −log10 of the molar value.
ASSAY METRIC: pIC50

COMPOUND	DATA VALUE
CC[C@@]1(OC(=O)[C@@H](NC(=O)[C@H](Cc2cnc[nH]2)NC(=S)Nc2ccc(CC(NS(=O)(=O)c3cccc(-c4cccc(NC(=O)Nc5nc6ccccc6[nH]5)c4)c3)C(=O)O)cc2)C(C)C)C(=O)OCc2c1cc1n(c2=O)Cc2cc3ccccc3nc2-1 (stereo partly drawn)	7.22
CC[C@@]1(OC(=O)[C@@H](NC(=O)C(Cc2c[nH]cn2)NC(=S)Nc2ccc(CC(NS(=O)(=O)c3ccc(-c4cccc(NC(=O)Nc5nc6ccccc6[nH]5)c4)cc3)C(=O)O)cc2)C(C)C)C(=O)OCc2c1cc1n(c2=O)Cc2cc3ccccc3nc2-1 (stereo partly drawn)	6.52
CCCNC(=O)Nc1cccc(S(=O)(=O)Nc2cccc(C(CC(=O)O)NC(=S)Nc3cccc4nc5c(cc34)Cn3c-5cc4c(c3=O)COC(=O)[C@]4(O)CC)c2)c1 (stereo partly drawn)	7.00
CC[C@@]1(OC(=O)[C@@H](NC(=O)[C@H](CCCCNC(=O)OCC2c3ccccc3-c3ccccc32)NC(=O)Nc2cccc(-c3ccc(C[C@H](NS(=O)(=O)CC45CCC(CC4=O)C5(C)C)C(=O)O)cc3)c2)C(C)C)C(=O)OCc2c1cc1n(c2=O)Cc2cc3ccccc3nc2-1 (stereo partly drawn)	5.52
CC[C@@]1(O)C(=O)OCc2c1cc1n(c2=O)Cc2cc3c(NC(=S)NC(CC(=O)O)c4cccc(NS(=O)(=O)c5cccc(NC(=N)N)c5)c4)cccc3nc2-1 (stereo partly drawn)	6.22
CC[C@@]1(OC(=O)[C@@H](NC(=O)CNC(=O)CCCC(=O)NC(CC(=O)O)c2cccc(NS(=O)(=O)c3cccc(NC(=N)N)c3)c2)C(C)C)C(=O)OCc2c1cc1n(c2=O)Cc2cc3ccccc3nc2-1 (stereo partly drawn)	6.30

###

Target: αvβ3 receptor (αvβ3 from human A375 cells) (Homo sapiens, UniProt P05106+P06756)
Construct: αvβ3 from human A375 cells was purified analogously to a procedure which was described by Wong et al; endogenous in cells; host or cells: human A375 cells; the receptor was purified from the cells and used detergent-solubilised (n-octyl-glucopyranoside)
Sequence (P06756 31-889 limits assumed): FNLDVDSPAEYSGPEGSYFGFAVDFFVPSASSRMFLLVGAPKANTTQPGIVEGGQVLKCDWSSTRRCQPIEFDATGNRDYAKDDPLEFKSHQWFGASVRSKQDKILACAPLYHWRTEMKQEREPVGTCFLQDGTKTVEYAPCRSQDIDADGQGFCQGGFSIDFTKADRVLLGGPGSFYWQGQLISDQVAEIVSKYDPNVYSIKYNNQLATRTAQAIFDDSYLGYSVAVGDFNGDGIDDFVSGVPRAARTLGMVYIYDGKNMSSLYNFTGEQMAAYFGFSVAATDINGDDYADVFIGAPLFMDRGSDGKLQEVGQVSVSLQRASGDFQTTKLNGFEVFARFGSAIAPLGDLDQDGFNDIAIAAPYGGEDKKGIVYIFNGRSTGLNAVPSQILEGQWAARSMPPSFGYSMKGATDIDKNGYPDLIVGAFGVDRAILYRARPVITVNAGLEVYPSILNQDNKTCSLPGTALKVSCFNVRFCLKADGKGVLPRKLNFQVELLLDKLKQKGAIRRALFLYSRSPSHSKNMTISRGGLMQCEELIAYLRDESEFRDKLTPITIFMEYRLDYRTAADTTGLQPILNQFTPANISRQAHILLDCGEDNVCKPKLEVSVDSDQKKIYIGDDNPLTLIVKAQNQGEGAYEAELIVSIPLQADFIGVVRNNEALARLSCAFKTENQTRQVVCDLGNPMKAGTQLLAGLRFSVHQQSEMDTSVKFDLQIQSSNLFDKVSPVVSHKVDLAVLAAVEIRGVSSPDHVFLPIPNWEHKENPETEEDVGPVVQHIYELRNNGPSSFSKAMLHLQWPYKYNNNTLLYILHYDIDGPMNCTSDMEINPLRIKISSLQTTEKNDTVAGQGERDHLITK
Sequence (P06756 891-1048 partner limits assumed): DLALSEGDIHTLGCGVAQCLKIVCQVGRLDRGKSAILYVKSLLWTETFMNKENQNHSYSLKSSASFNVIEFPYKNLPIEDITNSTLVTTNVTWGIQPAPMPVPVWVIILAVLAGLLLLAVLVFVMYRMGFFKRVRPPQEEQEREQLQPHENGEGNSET
Sequence (P05106 27-788): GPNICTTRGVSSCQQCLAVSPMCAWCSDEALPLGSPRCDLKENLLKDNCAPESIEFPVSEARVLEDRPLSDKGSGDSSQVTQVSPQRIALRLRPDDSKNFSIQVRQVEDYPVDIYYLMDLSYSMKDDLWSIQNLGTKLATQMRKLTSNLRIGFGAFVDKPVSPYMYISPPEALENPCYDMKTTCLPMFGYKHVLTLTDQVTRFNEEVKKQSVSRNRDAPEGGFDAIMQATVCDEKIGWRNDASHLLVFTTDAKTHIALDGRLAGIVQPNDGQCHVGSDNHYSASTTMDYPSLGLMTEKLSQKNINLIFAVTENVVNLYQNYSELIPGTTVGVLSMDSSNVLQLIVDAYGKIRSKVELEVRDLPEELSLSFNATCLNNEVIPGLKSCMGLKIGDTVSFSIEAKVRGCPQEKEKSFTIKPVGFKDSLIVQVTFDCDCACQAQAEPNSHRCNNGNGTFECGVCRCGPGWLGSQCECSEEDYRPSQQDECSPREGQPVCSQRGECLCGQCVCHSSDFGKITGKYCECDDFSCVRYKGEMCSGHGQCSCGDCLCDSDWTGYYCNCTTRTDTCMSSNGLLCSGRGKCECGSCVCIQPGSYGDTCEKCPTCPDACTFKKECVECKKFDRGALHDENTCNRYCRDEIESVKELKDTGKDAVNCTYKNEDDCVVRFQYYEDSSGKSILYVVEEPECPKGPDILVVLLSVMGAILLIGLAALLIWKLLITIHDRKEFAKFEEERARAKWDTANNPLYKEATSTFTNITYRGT
Test: αvβ3 binding test (echistatin displacement, WGA SPA beads)
pIC50: −log10 of the molar value.
Recorded pIC50, one value per entry.

COMPOUND	pIC50
CC[C@@]1(OC(=O)[C@@H](NC(=O)[C@H](Cc2cnc[nH]2)NC(=S)Nc2ccc(CC(NS(=O)(=O)c3cccc(-c4cccc(NC(=O)Nc5nc6ccccc6[nH]5)c4)c3)C(=O)O)cc2)C(C)C)C(=O)OCc2c1cc1n(c2=O)Cc2cc3ccccc3nc2-1 (stereo partly shown) [Example 3.9]	6.66
CCCNC(=O)Nc1cccc(S(=O)(=O)Nc2cccc(C(CC(=O)O)NC(=O)CCCC(=O)N3CCC[C@H]3C(=O)N[C@@H](CC(C)C)C(=O)NCC(=O)N[C@@H](CC(C)C)C(=O)O[C@]3(CC)C(=O)OCc4c3cc3n(c4=O)Cc4cc5ccccc5nc4-3)c2)c1 (stereo partly shown) [Example 3.23]	6.45
CC[C@@]1(OC(=O)[C@@H](NC(=O)C(Cc2c[nH]cn2)NC(=S)Nc2ccc(CC(NS(=O)(=O)c3ccc(-c4cccc(NC(=O)Nc5nc6ccccc6[nH]5)c4)cc3)C(=O)O)cc2)C(C)C)C(=O)OCc2c1cc1n(c2=O)Cc2cc3ccccc3nc2-1 (stereo partly shown) [Example 3.11]	7.01
CC[C@@]1(OC(=O)[C@@H](NC(=O)[C@H](Cc2cnc[nH]2)NC(=S)Nc2ccc(CC(NS(=O)(=O)c3cc(-c4cccc(NC(=O)Nc5nc6ccccc6[nH]5)c4)ccc3OC)C(=O)O)cc2)C(C)C)C(=O)OCc2c1cc1n(c2=O)Cc2cc3ccccc3nc2-1 (stereo partly shown) [Example 3.7]	6.95
